Data credit: ChEMBL document CHEMBL1121608

test system: Canis familiaris; assay: Tested for the percent increase in aortic blood pressure (BP) in open chest anesthetized dog at intravenous dosage of 1.00 mg/kg; format: functional, Canis lupus familiaris, Artery
Readings of BP for the listed compounds
Give the value in % but do not write % after it.

Past entries and their recorded results:
compound	BP [%]
CCN(CC)CCNC(=O)[C@H]1OC(n2cnc3c(N)ncnc32)[C@H](O)[C@@H]1O (stereo partly specified)	0
Nc1ncnc2c1ncn2C1O[C@H](C(=O)NCCc2ccccc2)[C@@H](O)[C@H]1O (stereo partly specified)	11
CCOCCNC(=O)[C@H]1OC(n2cnc3c(N)ncnc32)[C@H](O)[C@@H]1O (stereo partly specified)	15

Ask: Fill in the blank: the reported BP of CN(C)C(=O)[C@H]1OC(n2cnc3c(N)ncnc32)[C@H](O)[C@@H]1O (stereo partly specified) is ____.
Result: 0

Ask: // query BP value for entry C=CCNC(=O)[C@H]1O[C@@H](n2cnc3c(N)ncnc32)[C@H]2OC(C)(C)OC12 (stereo partly specified)
Result: 14

Ask: Look up BP: Cc1cccc(OCC(O)CNC(=O)[C@H]2OC(n3cnc4c(N)ncnc43)[C@H](O)[C@@H]2O)c1 (stereo partly specified)
Result: 3

Ask: Quick check: BP of Nc1ncnc2c1ncn2C1O[C@H](C(=O)Nc2ccccc2)[C@@H](O)[C@H]1O (stereo partly specified) ?
Result: 0

Ask: Suppose we examine the compound Nc1ncnc2c1ncn2C1O[C@H](C(=O)NCc2ccco2)[C@@H](O)[C@H]1O (stereo partly specified) ; what BP value has been reported?
Result: 1

Ask: Value lookup for BP; key = C=CCN(CC=C)C(=O)[C@H]1OC(n2cnc3c(N)ncnc32)[C@H](O)[C@@H]1O (stereo partly specified)
Result: 0

Ask: Would you mind telling me what BP value was observed for C#CCNC(=O)[C@H]1OC(n2cnc3c(N)ncnc32)[C@H](O)[C@@H]1O (stereo partly specified) ?
Result: 40

Ask: Given the entry CCCCCCNC(=O)[C@H]1OC(n2cnc3c(N)ncnc32)[C@H](O)[C@@H]1O (stereo partly specified) , report its measured BP.
Result: 0

---

test: Lethal dose in mice after intraperitoneal administration; format: toxicity, organism-based; conditions: mouse, in vivo, ip
endpoint-name: log10 of LD50 (log10 of the value in mg/kg)
Transform log10 | Measure LD50 | Unit mg/kg

compound	log10 of LD50
CCNC(=O)[C@H]1O[C@@H](n2cnc3c(N)ncnc32)[C@H](O)[C@@H]1O	-0.30

Ask: # query: log10 of LD50 of entry C=C(C)CNC(=O)[C@H]1OC(n2cnc3c(N)ncnc32)[C@H](O)[C@@H]1O (some centres undefined)
Result: 2.70

Ask: Entry Nc1ncnc2c1ncn2[C@@H]1O[C@H](C(=O)NC2CCC2)[C@@H](O)[C@H]1O has what log10 of LD50?
Result: 0.30

Ask: Could you share which log10 of LD50 value was measured for CCCCCCNC(=O)[C@H]1OC(n2cnc3c(N)ncnc32)[C@H](O)[C@@H]1O (some centres undefined) ?
Result: 2.30

Ask: Item Nc1ncnc2c1ncn2C1O[C@H](C(=O)NCC2CC2)[C@@H](O)[C@H]1O (some centres undefined) has what recorded log10 of LD50?
Result: 1.30

Ask: Quick one: log10 of LD50 of CONC(=O)[C@H]1O[C@@H](n2cnc3c(N)ncnc32)[C@H](O)[C@@H]1O ?
Result: 1.30

---

Reported LD50 values for a set of compounds
experiment: Lethal dose in mice after peroral administration; assay type: toxicity, organism-based; conditions: mouse, in vivo, po

Ask: // returns reported LD50 for input Nc1ncnc2c1ncn2C1O[C@H](C(=O)N2CCOCC2)[C@@H](O)[C@H]1O (some centres undefined)
Result: > 300 mg/kg

Ask: Please report the recorded LD50 for Cc1cccc(C)c1NC(=O)[C@H]1OC(n2cnc3c(N)ncnc32)[C@H](O)[C@@H]1O (some centres undefined) .
Result: > 1000 mg/kg

Ask: Can you share its LD50? I mean this compound: Nc1ncnc2c1ncn2C1O[C@H](C(=O)NCCO)[C@@H](O)[C@H]1O (some centres undefined)
Result: 5 mg/kg

Ask: Any idea what LD50 was measured for CCNC(=O)[C@H]1O[C@@H](n2cnc3c(N)ncnc32)[C@@H](OC(C)=O)C1OC(C)=O (some centres undefined) ?
Result: 2 mg/kg

Ask: Request the reported LD50 associated with Nc1ncnc2c1ncn2C1O[C@H](C(=O)Nc2ccc(F)cc2)[C@@H](O)[C@H]1O (some centres undefined)
Result: > 1000 mg/kg

Ask: GET /values?readout=LD50&item= C=C(C)CNC(=O)[C@H]1OC(n2cnc3c(N)ncnc32)[C@H](O)[C@@H]1O (some centres undefined)
Result: > 1000 mg/kg

Ask: May I ask what LD50 has been recorded for CC(C)NC(=O)[C@H]1OC(n2cnc3c(N)ncnc32)[C@H](O)[C@@H]1O (some centres undefined) ?
Result: 5 mg/kg

Ask: Quick one: LD50 of Nc1ncnc2c1ncn2C1O[C@H](C(=O)N2CCCCC2)[C@@H](O)[C@H]1O (some centres undefined) ?
Result: > 1000 mg/kg

Ask: Please look up its LD50: Cc1cccc(OCC(O)CNC(=O)[C@H]2OC(n3cnc4c(N)ncnc43)[C@H](O)[C@@H]2O)c1 (some centres undefined)
Result: > 300 mg/kg

---

tested on: Canis familiaris; assay: Tested for the percent increase in aortic blood pressure (BP) in open chest anesthetized dog at intravenous dosage of 0.01 mg/kg; assay type: functional, Canis lupus familiaris, Artery
Decision: BP >= 9% yields yes, all other cases yield no.

As a guide, the following entries are already answered.
compound	tgt	cat
Nc1c2ncn(C3O[C@H](C(=O)NC4CC4)[C@@H](O)[C@H]3O)c2nc[n+]1[O-] (stereo partly specified)	Canis familiaris	yes
CC(=O)OC1[C@@H](C(=O)NC2CC2)O[C@@H](n2cnc3c(N)ncnc32)[C@H]1OC(C)=O (stereo partly specified)	Canis familiaris	yes
CCOCCNC(=O)[C@H]1OC(n2cnc3c(N)ncnc32)[C@H](O)[C@@H]1O (stereo partly specified)	Canis familiaris	no
CCNC(=O)[C@H]1O[C@@H](n2cnc3c(N)ncnc32)[C@@H](OC(C)=O)C1OC(C)=O (stereo partly specified)	Canis familiaris	yes

Now for another entry.
Ask: Record C=CCNC(=O)[C@H]1OC(n2cnc3c(N)ncnc32)[C@H](O)[C@@H]1O (stereo partly specified) ; criterion: BP no lower than 9%. Met?
Result: no

---

test system: Canis familiaris; test: Tested for percent increase in coronary sinus partial pressure of oxygen (PO2) in open chest anesthetized dog at intravenous dosage of 0.01 mg/kg; format: functional, Canis lupus familiaris
endpoint-name: PO2 (%)
Enter your answer as a number in %; do not include the unit.

Some molecules with known PO2 results, for comparison:
substance-smiles	endpoint-name	display-unit	observed
CNC(=O)[C@H]1O[C@@H](n2cnc3c(N)ncnc32)[C@H](O)[C@@H]1O	PO2	%	105
Nc1ncnc2c1ncn2[C@@H]1O[C@H](C(=O)NC2CC2)[C@@H](O)[C@H]1O	PO2	%	136

As a next step, examine the molecule that follows.
Ask: Would you kindly share the measured PO2 for Nc1ncnc2c1ncn2[C@@H]1O[C@H](C(=O)NC2CCC2)[C@@H](O)[C@H]1O ?
Result: 79

---

assay: Lethal dose in mice after peroral administration; type: toxicity, organism-based; conditions: mouse, in vivo, po
endpoint-name: LD50

Some compounds with known LD50 results, for comparison:
compound	LD50
CCOC(=O)CNC(=O)[C@H]1OC(n2cnc3c(N)ncnc32)[C@H](O)[C@@H]1O (some centres undefined)	> 300 mg/kg
CCCONC(=O)[C@H]1OC(n2cnc3c(N)ncnc32)[C@H](O)[C@@H]1O (some centres undefined)	> 1000 mg/kg
Nc1ncnc2c1ncn2[C@@H]1O[C@H](C(=O)NC2CCCC2)[C@@H](O)[C@H]1O	200 mg/kg
COc1ccccc1N1CCN(C(=O)[C@H]2OC(n3cnc4c(N)ncnc43)[C@H](O)[C@@H]2O)CC1 (some centres undefined)	> 300 mg/kg
CCOCCNC(=O)[C@H]1OC(n2cnc3c(N)ncnc32)[C@H](O)[C@@H]1O (some centres undefined)	> 1000 mg/kg
CC(=O)OC1[C@@H](C(=O)NC2CC2)O[C@@H](n2cnc3c(N)ncnc32)[C@H]1OC(C)=O (some centres undefined)	20 mg/kg
C=CCNC(=O)[C@H]1OC(n2cnc3c(N)ncnc32)[C@H](O)[C@@H]1O (some centres undefined)	> 1000 mg/kg
Nc1ncnc2c1ncn2[C@@H]1O[C@H](C(=O)NC2CCC2)[C@@H](O)[C@H]1O	5 mg/kg

Turning now to a further record.
Ask: Find the recorded LD50 belonging to CC1(C)OC2[C@@H](C(=O)NC3CC3)O[C@@H](n3cnc4c(N)ncnc43)[C@H]2O1 (some centres undefined) and report it.
Result: > 300 mg/kg
